assay: Cytotoxicity against human MCF7 cells assessed as cell viability at 15 uM after 72 hrs by Celltitre-glo assay; type: cell-based; details: read-out: Activity
Binary call on viability at 72 h, 15 µM with cut-off 90%: strictly below means MET, and equality or higher means NOT MET.

O=C1/C(=C/c2cccc(O)c2O)Oc2ccccc21
NOT MET
COc1cccc(/C=C2\Oc3ccccc3C2=O)c1OC
NOT MET
O=C(O)c1ccc(/C=C2\Oc3ccc(Cl)cc3C2=O)cc1
NOT MET
COc1cccc(/C=C2\Oc3ccc(Cl)cc3C2=O)c1OC
NOT MET
O=C(O)c1ccc(/C=C2\Oc3ccccc3C2=O)cc1
NOT MET

Inquiry: Is it true that viability at 72 h, 15 µM reported for COc1cc(OC)c2c(c1)O/C(=C\c1ccccc1Cl)C2=O is less than 90%?
Reply text: MET
